B1: Activity-dependent neuroprotector homeobox protein, residues 770 to 810; numbered along this chain, Q9H2P0 (parent)
chain: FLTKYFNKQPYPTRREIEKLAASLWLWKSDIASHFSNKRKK

- Variants of: B1
- Test summary: abundance fitness (aPCA) (normalised: wild type 0, dead -1); higher = more abundant; growth selection in yeast, the domain comes from the species named
- Condition label: Homo sapiens
# binning rule on abundance fitness: low-valued: < -0.3; mid-valued: ≥ -0.3 and < -0.04; high-valued: ≥ -0.04

[ask] Which class is correct for the following variant? FLTKYFRKQPYPTRREIEKLAASLWLWKSDIASHFSNKRKK [N7R]
[reply] mid-valued

[ask] Sort into band: FLTKYFNKQPYPTRREIEKLAASVWLWKSDIASHFSNKRKK [L24V]
[reply] high-valued

[ask] Please let me know in which category the item FLTKYFNKQPYPTRREIEKLAASLWLWKSDIASHFSNKRDK [K40D] belongs.
[reply] mid-valued

[ask] Class label required: FKTKYFNKQPYPTRREIEKLAASLWLWKSDIASHFSNKRKK [L2K]
[reply] low-valued

[ask] Hello team, could you let me know which band the following variant falls into: FLTKYFNKQPYPTRREIEKLWASLWLWKSDIASHFSNKRKK [A21W]
[reply] high-valued

[ask] Lab note: which band did FLTKYFNKQPYPTRREIEKLHASLWLWKSDIASHFSNKRKK [A21H] land in?
[reply] low-valued

[ask] Could you place FLTKYFNKQPYPTFREIEKLAASLWLWKSDIASHFSNKRKK [R14F] in its proper category? Many thanks.
[reply] low-valued

[ask] For FLTKYFNKQPYPTREEIEKLAASLWLWKSDIASHFSNKRKK [R15E] , which abundance fitness bin applies?
[reply] high-valued

[ask] Lab log: FLTKYFNKQPYPTRREIEHLAASLWLWKSDIASHFSNKRKK [K19H] — assign abundance fitness category
[reply] low-valued

[ask] Could you place FLTKYFNKQPYPTRREIEKLAASLWLWKSDIASHFSFKRKK [N37F] in its proper category? Many thanks.
[reply] mid-valued

[ask] Lab note: which band did FLTKYFNKQPYPTRDEIEKLAASLWLWKSDIASHFSNKRKK [R15D] land in?
[reply] mid-valued

[ask] Record FLTKYFNKQPYPTRREIMKLAASLWLWKSDIASHFSNKRKK [E18M] — which class?
[reply] high-valued

[ask] Given FLTKYFNKQPYPTRLEIEKLAASLWLWKSDIASHFSNKRKK [R15L] , name the class its abundance fitness places it in.
[reply] mid-valued

[ask] Could you tell me which band FLGKYFNKQPYPTRREIEKLAASLWLWKSDIASHFSNKRKK [T3G] belongs to?
[reply] mid-valued

[ask] Category lookup for the variant FLTKYFNKQPYPTRREIEKLAASLYLWKSDIASHFSNKRKK [W25Y]
[reply] mid-valued

[ask] Using the reported abundance fitness, which band applies to FLTKYFNKQPYPTRREIIKLAASLWLWKSDIASHFSNKRKK [E18I] ?
[reply] low-valued

[ask] Band for SLTKYFNKQPYPTRREIEKLAASLWLWKSDIASHFSNKRKK [F1S] ?
[reply] mid-valued

[ask] Returns: class label. Input: FLTKYFNKQPYPTRREIKKLAASLWLWKSDIASHFSNKRKK [E18K]
[reply] high-valued

[ask] Which category fits this record: FLTKYFNKQPYPTRREIEKLAASWWLWKSDIASHFSNKRKK [L24W]
[reply] mid-valued

[ask] State the band of FLTKYFNKQPYPTRREIEKLAASLWLWKSDIASHFSNKRLK [K40L]
[reply] low-valued

[ask] Each variant maps to one class by abundance fitness. Which class for FLTKYFNKQPYPTRREIEKQAASLWLWKSDIASHFSNKRKK [L20Q] ?
[reply] low-valued

[ask] For this variant, which bin applies? FLTKYFNKQPEPTRREIEKLAASLWLWKSDIASHFSNKRKK [Y11E]
[reply] high-valued

[ask] # classify by abundance fitness band: FLTKYFNKQPYPTRREYEKLAASLWLWKSDIASHFSNKRKK [I17Y]
[reply] mid-valued

[ask] Exercise: read the entry FLTKYFNKQPYPTRREIEKLAAKLWLWKSDIASHFSNKRKK [S23K] and state which class it falls under.
[reply] high-valued

[ask] Please report the category associated with FLTKYFNKQPYPTRREIEKLAASLWLWKSDIASGFSNKRKK [H34G] , nothing else.
[reply] mid-valued

[ask] Exam item: assign FLTKYDNKQPYPTRREIEKLAASLWLWKSDIASHFSNKRKK [F6D] to the correct category.
[reply] low-valued

[ask] Each variant maps to one class by abundance fitness. Which class for FLTKYFNKQPYPTRREIEKLAASLWLWKSQIASHFSNKRKK [D30Q] ?
[reply] high-valued

[ask] # classify by abundance fitness band: FLTKYFNKQPYPTRREIEKLAASLWLWKSDIASHFYNKRKK [S36Y]
[reply] low-valued

[ask] Could you place FLTKYFNKQPYPTRREIEKLAASLWLAKSDIASHFSNKRKK [W27A] in its proper category? Many thanks.
[reply] mid-valued

[ask] Kindly identify the class of FLTKYFNKQPYPTRREIEKLAGSLWLWKSDIASHFSNKRKK [A22G] .
[reply] mid-valued

[ask] // bin(item) where item = FLTKYFNKQPYPTRNEIEKLAASLWLWKSDIASHFSNKRKK [R15N]
[reply] mid-valued

[ask] Using the reported abundance fitness, which band applies to FLTKYFNKQPYPTRREIEKYAASLWLWKSDIASHFSNKRKK [L20Y] ?
[reply] high-valued

[ask] Lab note: which band did FLDKYFNKQPYPTRREIEKLAASLWLWKSDIASHFSNKRKK [T3D] land in?
[reply] mid-valued

[ask] Which band does FGTKYFNKQPYPTRREIEKLAASLWLWKSDIASHFSNKRKK [L2G] fall in?
[reply] low-valued

[ask] Assign a bin to FLTKYFNKQPYPTRREIEKLAASLWLWKSDIAMHFSNKRKK [S33M]
[reply] mid-valued

[ask] Classify this variant: FLTKYFNKQPYPTRREIEKLAASLWVWKSDIASHFSNKRKK [L26V]
[reply] high-valued

[ask] Hi there! Could you help me figure out the category for FLTKYFNKQPYPTRREIEKLAASLWLWKSDIASHFANKRKK [S36A] please?
[reply] mid-valued

[ask] Category of FLTKYFNKQPYPTRREIEKLAAELWLWKSDIASHFSNKRKK [S23E] , please.
[reply] mid-valued

[ask] Which category fits this record: FLTKYFNKQPYPTRREIEKLAASLWLWKSPIASHFSNKRKK [D30P]
[reply] high-valued

[ask] Category of DLTKYFNKQPYPTRREIEKLAASLWLWKSDIASHFSNKRKK [F1D] , please.
[reply] low-valued

[ask] Textbook exercise: identify the category of the variant given here, FLTKYFNKQPYPTRCEIEKLAASLWLWKSDIASHFSNKRKK [R15C] , according to its measured value.
[reply] mid-valued

[ask] Band for FLTKYFNQQPYPTRREIEKLAASLWLWKSDIASHFSNKRKK [K8Q] ?
[reply] low-valued

[ask] Exam item: assign FLTKYFNKQPYPTRREIEKLAASLLLWKSDIASHFSNKRKK [W25L] to the correct category.
[reply] high-valued

[ask] Please let me know in which category the item FLTKYFNKQPYPTMREIEKLAASLWLWKSDIASHFSNKRKK [R14M] belongs.
[reply] high-valued

[ask] Which bin should I file FLTKYFNKQPYPTRREIEALAASLWLWKSDIASHFSNKRKK [K19A] under?
[reply] low-valued

[ask] State the band of FLTKYFNKQPYPTRREIEKLAASLWLWKSDIASHFSGKRKK [N37G]
[reply] high-valued

[ask] Which category fits this record: FLTKYFNKQPYPTRREIEKLAASLWLWKSDIACHFSNKRKK [S33C]
[reply] mid-valued

[ask] In plain terms, what class is FLTKYFNKQPTPTRREIEKLAASLWLWKSDIASHFSNKRKK [Y11T] ?
[reply] high-valued

[ask] Note: place this variant into its band. Item: FLTKYFNKQPYPTRREIEKLAASLWLWKSDIASHFSNKRKV [K41V]
[reply] low-valued

[ask] Note: place this variant into its band. Item: FLTKYFNKQPYPTRREIEKLAASLWLWKSDIASHFSNKRKI [K41I]
[reply] mid-valued

[ask] Just checking, what class would you give FLTKYFNKQPYPTRREIEKLAASLWLWKSDIASHFSNKNKK [R39N] here?
[reply] high-valued

[ask] Any idea which band FLTKYFNKQPYPTRREIEKLAASLWLWKSDIASHFSNKMKK [R39M] is in?
[reply] high-valued

[ask] Which category fits this record: FLTKYFNKQPYPTRREIEKLAASLWLWKSDIASHFSSKRKK [N37S]
[reply] high-valued

[ask] Which of the defined bands does the recorded abundance fitness of FLTKYFNFQPYPTRREIEKLAASLWLWKSDIASHFSNKRKK [K8F] sit within?
[reply] low-valued

[ask] Which category does the recorded abundance fitness put FLTPYFNKQPYPTRREIEKLAASLWLWKSDIASHFSNKRKK [K4P] in?
[reply] low-valued

[ask] Which of the defined bands does the recorded abundance fitness of FLTKYFNKQPYPTRREIEKLAASLWGWKSDIASHFSNKRKK [L26G] sit within?
[reply] high-valued

[ask] Class label required: FLTKYFNKQPYPTRREIEKLAASLTLWKSDIASHFSNKRKK [W25T]
[reply] high-valued

[ask] Hi there! Could you help me figure out the category for FLTKYFNKQPYPTRREIEKKAASLWLWKSDIASHFSNKRKK [L20K] please?
[reply] high-valued

[ask] Class for FLTKYFNKQPYPTRREIEKLAASLWLWPSDIASHFSNKRKK [K28P] ?
[reply] high-valued

[ask] For FLTKYFNKQPYPTRREINKLAASLWLWKSDIASHFSNKRKK [E18N] , which abundance fitness bin applies?
[reply] mid-valued

[ask] Note: place this variant into its band. Item: FFTKYFNKQPYPTRREIEKLAASLWLWKSDIASHFSNKRKK [L2F]
[reply] high-valued

[ask] # classify by abundance fitness band: FLTKYFNWQPYPTRREIEKLAASLWLWKSDIASHFSNKRKK [K8W]
[reply] low-valued

[ask] Class for FLTKYFNKQPYPTRREIEKLAAFLWLWKSDIASHFSNKRKK [S23F] ?
[reply] low-valued

[ask] Band for FLTKYFNKQPYPTRREIEKLAASLWLWKSDIASHFSNKVKK [R39V] ?
[reply] mid-valued

[ask] Bin this entry: FLTKYFNKQPYPTRREIEYLAASLWLWKSDIASHFSNKRKK [K19Y]
[reply] low-valued

[ask] Given FLTKYFNKQPYPTRREIEKLAASLWLWKSDIASHFSNKCKK [R39C] , name the class its abundance fitness places it in.
[reply] mid-valued

[ask] Which band does FLTKYFNKQPYPTRREIEKLAQSLWLWKSDIASHFSNKRKK [A22Q] fall in?
[reply] high-valued

[ask] Place this variant in its band: FLTKYFNKQPYPTRREIEKLAASLWLWKSDIASHFSNKRKH [K41H]
[reply] mid-valued

[ask] Category lookup for the variant FLTKYFNKQPYPTRREIEKLAASLRLWKSDIASHFSNKRKK [W25R]
[reply] high-valued

[ask] Any idea which band TLTKYFNKQPYPTRREIEKLAASLWLWKSDIASHFSNKRKK [F1T] is in?
[reply] mid-valued

[ask] Place this variant in its band: FHTKYFNKQPYPTRREIEKLAASLWLWKSDIASHFSNKRKK [L2H]
[reply] low-valued

[ask] Record FLTKYFNKQPYPTRREIEKLAASLWLWKSDIASHSSNKRKK [F35S] — which class?
[reply] mid-valued

[ask] Lab note: which band did FLTKYFNKQPYPTRREIEKLAASLWLHKSDIASHFSNKRKK [W27H] land in?
[reply] mid-valued

[ask] The entry to classify is FLTKYFNKQPYPTRREIEKLAASLWLWKSDIASHFSNKRTK [K40T] ; which class holds it?
[reply] high-valued

[ask] Categorize the following entry: FLTKYFNKQAYPTRREIEKLAASLWLWKSDIASHFSNKRKK [P10A]
[reply] mid-valued

[ask] Pick a category. Item: FLTKYFNKQPYPTRREIEKLAASRWLWKSDIASHFSNKRKK [L24R]
[reply] low-valued

[ask] Assign a bin to FLTNYFNKQPYPTRREIEKLAASLWLWKSDIASHFSNKRKK [K4N]
[reply] low-valued

[ask] For the record FLTKYFNKQPYPTRREIEKLAASLQLWKSDIASHFSNKRKK [W25Q] , report the class its abundance fitness corresponds to.
[reply] high-valued

[ask] Entry FLTKYFNKQPYPSRREIEKLAASLWLWKSDIASHFSNKRKK [T13S] belongs to which category?
[reply] mid-valued

[ask] Textbook exercise: identify the category of the variant given here, FLTKYFNKQPYPTRREIEKLAASLWLWKSDIASHFSNKREK [K40E] , according to its measured value.
[reply] mid-valued

[ask] Band for FLTKYFNNQPYPTRREIEKLAASLWLWKSDIASHFSNKRKK [K8N] ?
[reply] low-valued

[ask] Returns: class label. Input: FLEKYFNKQPYPTRREIEKLAASLWLWKSDIASHFSNKRKK [T3E]
[reply] mid-valued

[ask] Hello team, could you let me know which band the following variant falls into: FLTKYFNKQPYPTRREIEKLAASTWLWKSDIASHFSNKRKK [L24T]
[reply] mid-valued

FYI, the data here is from the Human Domainome abundance scans (Beltran et al. 2025).
